molecular target: Full-length BTKC481S (Homo sapiens, UniProt Q06187, C481S); construct: Full-length BTKC481S was diluted in assay buffer; assay: BTKC481S Kinase Activity Assay; assay type: biochemical; conditions: AlphaScreen, 60 μM ATP; test concentration not given
Sequence (Q06187 whole entry C481S): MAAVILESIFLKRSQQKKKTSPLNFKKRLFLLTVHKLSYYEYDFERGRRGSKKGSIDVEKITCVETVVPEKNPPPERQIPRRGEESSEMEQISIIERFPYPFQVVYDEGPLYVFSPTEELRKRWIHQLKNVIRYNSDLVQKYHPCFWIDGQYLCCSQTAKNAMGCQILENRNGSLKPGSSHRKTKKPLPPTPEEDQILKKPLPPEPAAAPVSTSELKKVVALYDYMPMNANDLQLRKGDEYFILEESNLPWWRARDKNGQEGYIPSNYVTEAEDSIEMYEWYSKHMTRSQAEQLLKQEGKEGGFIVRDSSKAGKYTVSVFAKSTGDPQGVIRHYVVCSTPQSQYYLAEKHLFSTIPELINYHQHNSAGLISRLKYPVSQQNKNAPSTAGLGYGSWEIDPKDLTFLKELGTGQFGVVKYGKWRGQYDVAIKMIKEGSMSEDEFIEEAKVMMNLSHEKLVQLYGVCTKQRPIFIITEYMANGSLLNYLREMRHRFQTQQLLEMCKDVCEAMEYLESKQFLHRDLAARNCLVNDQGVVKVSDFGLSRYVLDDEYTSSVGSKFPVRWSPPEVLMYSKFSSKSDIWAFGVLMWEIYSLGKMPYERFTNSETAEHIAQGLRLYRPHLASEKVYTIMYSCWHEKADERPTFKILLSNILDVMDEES
PARAMETER: BTK (C481S) (% inhibition) (%)

Field: example entries. Status: answers known.
Sample `CN(C[C@H]1CN(C)c2ccccc2O1)c1ncc2c3[nH]nc(N)c3c(=O)n(-c3ccccc3F)c2n1` — what was its BTK (C481S) (% inhibition)? 101

Now consider `Cc1[nH]nc2c1c(=O)n(-c1ccccc1)c1nc(NC[C@H]3COc4ccccc4O3)ncc21` . 73.3

Now consider CN1CC(CNc2ncc3c4n[nH]cc4c(=O)n(-c4ccccc4F)c3n2)Oc2ccccc21 (stereo not shown) . 99.2

Now consider CN(CC1COc2ccccc2O1)c1ncc2c3[nH]nc(N)c3c(=O)n(-c3ccccc3)c2n1 (stereo not shown) . 98.2

Now consider O=c1c2c[nH]nc2c2cnc(NCC3CNc4ccccc4O3)nc2n1-c1ccccc1F (stereo not shown) . 85.2

P = CN1C[C@H](CNc2ncc3c4n[nH]cc4c(=O)n(-c4ccccc4F)c3n2)Oc2ccccc21
Q = CN1C[C@H](CNc2ncc3c4[nH]nc(N)c4c(=O)n(-c4ccccc4)c3n2)Oc2cc(F)ccc21
Please indicate which entry, P or Q , has the lower recorded BTK (C481S) (% inhibition) value. Give the label under which the chosen entry appears. Q
(Q: 36.1%, P: 100%)

* * *

target: Full-length BTKC481S (Homo sapiens, UniProt Q06187, C481S); construct: Full-length BTKC481S was diluted in assay buffer; experiment: BTKC481S Kinase Activity Assay; format: biochemical; settings: AlphaScreen, 60 μM ATP; test concentration not given
PARAMETER: BTK (C481S) (% inhibition) (%)

Sample O=c1[nH]nc2c3cnc(NCC4COc5ccccc5O4)nc3n(-c3ccccc3)cc1-2 (stereo not drawn) — what was its BTK (C481S) (% inhibition)? 53.7

A = O=c1c2c[nH]nc2c2cnc(NCC3COc4ccccc4O3)nc2n1-c1ccccc1 (stereo not drawn)
B = Cc1c2c(=O)[nH]nc-2c2cnc(NC[C@H]3COc4ccccc4O3)nc2n1-c1ccccc1
Please indicate which entry, A or B , has the lower recorded BTK (C481S) (% inhibition) value. Give the label under which the chosen entry appears. B

* * *

molecular target: Full-length inactive BTK (Homo sapiens, UniProt Q06187); assay: BTK Kinase Activity Assay; conditions: AlphaScreen, 25 μM ATP, 30 minute pre-incubation
Sequence (Q06187 whole entry): as the sequence (Q06187 whole entry C481S) above, with S481C counted along it
pIC50: −log10 of the molar value.
PARAMETER: pIC50

a = Cc1[nH]nc2c1c(=O)n(-c1ccccc1)c1nc(NC[C@H]3COc4ccccc4O3)ncc21
b = CN1CC(CNc2ncc3c4n[nH]cc4c(=O)n(-c4ccccc4F)c3n2)Oc2ccccc21 (stereo not shown)
Please indicate which entry, a or b , has the lower recorded pIC50 value. Give the label under which the chosen entry appears. a
(a: 6.85, b: 7.47)

a = O=c1[nH]nc2c3cnc(NCC4COc5ccccc5O4)nc3n(-c3ccccc3)cc1-2 (stereo not shown)
b = CN(C[C@H]1CN(C)c2ccccc2O1)c1ncc2c3[nH]nc(N)c3c(=O)n(-c3ccccc3F)c2n1
c = CN(CC1COc2ccccc2O1)c1ncc2c3[nH]nc(N)c3c(=O)n(-c3ccccc3)c2n1 (stereo not shown)
Place the items in sequence of falling pIC50. # list labels per requested ordering b, c, a
(b: 7.96, c: 7.42, a: 6.48)

# credit: patent US9012466B2
